Target: CXCR4 (Homo sapiens, UniProt P61073)
Sequence (P61073 whole entry): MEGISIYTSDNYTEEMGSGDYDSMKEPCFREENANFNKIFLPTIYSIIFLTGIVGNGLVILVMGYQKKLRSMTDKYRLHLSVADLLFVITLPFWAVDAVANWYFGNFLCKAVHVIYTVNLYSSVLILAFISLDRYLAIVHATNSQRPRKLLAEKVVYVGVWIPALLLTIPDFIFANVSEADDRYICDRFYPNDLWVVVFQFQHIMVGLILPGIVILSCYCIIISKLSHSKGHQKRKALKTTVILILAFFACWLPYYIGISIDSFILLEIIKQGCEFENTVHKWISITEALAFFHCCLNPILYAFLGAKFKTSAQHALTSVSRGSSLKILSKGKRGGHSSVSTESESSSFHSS
Experiment: Ca2+-assay method 2 (Flexstation, SDF-1 induced calcium mobilization)
Format: cell-based
Parameters: expressed in transfected cells; host or cells: mouse pre-B cell line 300-19
Conditions: method 2 (Ex. 54-160), mouse pre-B cell line 300-19 with human CXCR4, 10 nM SDF-1; read-out: IC50 (nM) Ca^2+ assay
Bridge positions count the residues as written; N and C are the ends. Square brackets hold non-standard residues; d marks the D form. Peptide text beside a SMILES is read from it. 2Nal = N[C@@H](Cc1ccc2ccccc2c1)C(=O)O; Cit = NC(=O)NCCC[C@H](N)C(=O)O
quantity: IC50 (nM)
Just the number in nM, nothing appended.

Task: State its IC50: CSCC[C@@H]1NC(=O)[C@@H]2CCCN2C(=O)[C@H]2CCCN2C(=O)[C@H](CCCCN)NC(=O)[C@H](CCC(N)=O)NC(=O)[C@H](Cc2ccc(O)cc2)NC(=O)[C@@H]2CSSC[C@H](NC(=O)[C@H](CCCNC(N)=O)NC(=O)[C@H](CCCNC(=N)N)NC1=O)C(=O)N[C@@H](CCCNC(=N)N)C(=O)NCC(=O)N1CCC[C@@H]1C(=O)N[C@@H](CCCNC(=N)N)C(=O)N[C@@H](CCCNC(=N)N)C(=O)N[C@@H](Cc1ccc3ccccc3c1)C(=O)N2 [Ex. 91] (cyclo(MR[Cit]CRG[dP]RR[2Nal]CYQK[dP]P); disulfide 4-11)
Output: 2.1

Task: State its IC50: C[C@@H](O)[C@@H]1NC(=O)[C@H](Cc2ccc(O)cc2)NC(=O)[C@@H]2CSSC[C@H](NC(=O)[C@H](CCCNC(N)=O)NC(=O)[C@H](CCCNC(=N)N)NC(=O)[C@H](Cc3ccc(O)cc3)NC(=O)[C@@H]3CCCN3C(=O)[C@H]3CCCN3C(=O)[C@H](CCCCN)NC1=O)C(=O)N[C@@H](CCCNC(=N)N)C(=O)NCC(=O)N1CCC[C@@H]1C(=O)N[C@@H](CCCNC(=N)N)C(=O)N[C@@H](CCCNC(=N)N)C(=O)N[C@@H](Cc1ccc3ccccc3c1)C(=O)N2 [Ex. 133] (cyclo(YR[Cit]CRG[dP]RR[2Nal]CYTK[dP]P); disulfide 4-11)
Output: 5.3

Task: State its IC50: N=C(N)NCCC[C@@H]1NC(=O)[C@@H]2CSSC[C@H](NC(=O)[C@H](Cc3ccc4ccccc4c3)NC(=O)[C@H](CCCNC(=N)N)NC(=O)[C@H](CCCNC(=N)N)NC(=O)[C@H]3CCCN3C(=O)CNC1=O)C(=O)N[C@@H](Cc1ccc(O)cc1)C(=O)N[C@@H](CCC(N)=O)C(=O)N[C@@H](CC(N)=O)C(=O)N1CCC[C@@H]1C(=O)N1CCC[C@H]1C(=O)N[C@@H](Cc1ccc(O)cc1)C(=O)N[C@@H](CCCNC(=N)N)C(=O)N[C@@H](CCCNC(N)=O)C(=O)N2 [Ex. 84] (cyclo(YR[Cit]CRG[dP]RR[2Nal]CYQN[dP]P); disulfide 4-11)
Output: 3.9
